Assay: Accelerated stability test of leonurine crystal forms
Format: physicochemical
Settings: 40° C., 70% RH, 10 days
Measure Name: Crystal stability

// COc1cc(C(=O)OCCCCNC(=N)N)cc(OC)c1O [crystal form A] : Crystal stability value = remain unchanged

Crystal stability recorded for this compound, COc1cc(C(=O)OCCCCNC(=N)N)cc(OC)c1O [crystal form E] , is remain unchanged

###

Test: Hygroscopicity, dynamic vapor sorption (DVS), 0-95% RH
Assay type: physicochemical
Details: 80% RH
Measure Name: hygroscopicity, water absorption

Examples with answers:
The compound listed as COc1cc(C(=O)OCCCCNC(=N)N)cc(OC)c1O [crystal form A] shows hygroscopicity, water absorption equal to 80% RH, water absorption 0.12%

Just so you know, measured hygroscopicity, water absorption for COc1cc(C(=O)OCCCCNC(=N)N)cc(OC)c1O [crystal form D] came out at 80% RH, water absorption 0.98%

Recorded hygroscopicity, water absorption (compound COc1cc(C(=O)OCCCCNC(=N)N)cc(OC)c1O [crystal form B] ): 80% RH, water absorption 0.30%

// hygroscopicity, water absorption value for COc1cc(C(=O)OCCCCNC(=N)N)cc(OC)c1O [crystal form E] : 80% RH, water absorption 0.12%

So for COc1cc(C(=O)OCCCCNC(=N)N)cc(OC)c1O [crystal form F] , the logged hygroscopicity, water absorption turned out to be 80% RH, water absorption 0.30%

Then there is this compound:
Record summary for COc1cc(C(=O)OCCCCNC(=N)N)cc(OC)c1O [crystal form C] : reported hygroscopicity, water absorption = 80% RH, water absorption 1.05%
